Test: Growth inhibition of human DWD cells by SRB method
Assay type: functional
# note: exactly 2000 nM is not below, so it is no (0); use yes (1) for GI50 strictly under it

GIVEN_SMILES: COC(=O)c1nnn(CCCCOc2cc3c(cc2OC)C(=O)N2CCC[C@H]2C=N3)c1C(=O)OC
CLASS_NAME: no (0)
--
GIVEN_SMILES: COc1cc2c(cc1O)N=C[C@@H]1CCCN1C2=O
CLASS_NAME: yes (1)
--
GIVEN_SMILES: COC(=O)c1nnn([C@H]2C[C@H]3C=Nc4cc(OC)c(OC)cc4C(=O)N3C2)c1C(=O)OC
CLASS_NAME: no (0)
--
GIVEN_SMILES: COC(=O)c1nnn(CCCCCOc2cc3c(cc2OC)C(=O)N2CCC[C@H]2C=N3)c1C(=O)OC
CLASS_NAME: no (0)

Please check: GI50 for COC(=O)c1nnn(CCCCCOc2cc3c(cc2OC)C(=O)N2C[C@@H](n4nnc(C(=O)OC)c4C(=O)OC)C[C@H]2C=N3)c1C(=O)OC , strictly under 2000 nM or not?
yes (1)

Say whether its GI50 is strictly beneath 2000 nM. Entry: COC(=O)c1nnn([C@H]2C[C@H]3C=Nc4cc(OCc5ccccc5)c(OC)cc4C(=O)N3C2)c1C(=O)OC
no (0)

GI50 under 2000 nM? Item: COC(=O)c1nnn(CCCOc2cc3c(cc2OC)C(=O)N2CCC[C@H]2C=N3)c1C(=O)OC
no (0)

Please state whether GI50 is below 2000 nM for COc1cccc2c1C(=O)c1c(O)c3c(c(O)c1C2=O)C[C@@](O)(C(=O)CO)C[C@@H]3O[C@H]1C[C@H](N)[C@H](O)[C@H](C)O1
yes (1)

* * *

Tested on: ZR-75-1
Test: Growth inhibition of human Zr-75-1 cells by SRB method
Assay type: functional
# key: entry, value: GI50
Number in nM, nothing else.

Some compounds with known GI50 results, for comparison:
GIVEN_SMILES: COC(=O)c1nnn(CCCOc2cc3c(cc2OC)C(=O)N2CCC[C@H]2C=N3)c1C(=O)OC
EXPERIMENTAL_SYSTEM: ZR-75-1
UNIT_TEXT: nM
GI50: 2530
--
GIVEN_SMILES: COc1cccc2c1C(=O)c1c(O)c3c(c(O)c1C2=O)C[C@@](O)(C(=O)CO)C[C@@H]3O[C@H]1C[C@H](N)[C@H](O)[C@H](C)O1
EXPERIMENTAL_SYSTEM: ZR-75-1
UNIT_TEXT: nM
GI50: 1790
--
GIVEN_SMILES: COC(=O)c1nnn(CCCCOc2cc3c(cc2OC)C(=O)N2CCC[C@H]2C=N3)c1C(=O)OC
EXPERIMENTAL_SYSTEM: ZR-75-1
UNIT_TEXT: nM
GI50: 2120
--
GIVEN_SMILES: COC(=O)c1nnn(CCCCCOc2cc3c(cc2OC)C(=O)N2CCC[C@H]2C=N3)c1C(=O)OC
EXPERIMENTAL_SYSTEM: ZR-75-1
UNIT_TEXT: nM
GI50: 1930

Suppose we examine the compound COC(=O)c1nnn(CCCCCOc2cc3c(cc2OC)C(=O)N2C[C@@H](n4nnc(C(=O)OC)c4C(=O)OC)C[C@H]2C=N3)c1C(=O)OC ; what GI50 value has been reported?
5510

Which value of GI50 has been reported for COC(=O)c1nnn([C@H]2C[C@H]3C=Nc4cc(OC)c(OC)cc4C(=O)N3C2)c1C(=O)OC in the records?
2470

So what does the record say about GI50 for COc1cc2c(cc1O)N=C[C@@H]1CCCN1C2=O ?
2370

* * *

System: DNA
Assay: Binding affinity to calf thymus DNA assessed as helix melting temperature at 20 uM after 18 hrs
Assay type: nucleic-acid assay
Settings: Bos taurus
Consider the following compounds and their measured ΔTm readings.
Unit °C implied. Number only.

In the examples that follow, each entry is paired with its recorded ΔTm.
GIVEN_SMILES: COC(=O)c1nnn(CCCOc2cc3c(cc2OC)C(=O)N2C[C@@H](n4nnc(C(=O)OC)c4C(=O)OC)C[C@H]2C=N3)c1C(=O)OC
ΔTm (°C): 4.5

GIVEN_SMILES: COC(=O)c1nnn(CCCCCOc2cc3c(cc2OC)C(=O)N2CCC[C@H]2C=N3)c1C(=O)OC
ΔTm (°C): 3.6

GIVEN_SMILES: COC(=O)c1nnn(CCCCOc2cc3c(cc2OC)C(=O)N2C[C@@H](n4nnc(C(=O)OC)c4C(=O)OC)C[C@H]2C=N3)c1C(=O)OC
ΔTm (°C): 0

GIVEN_SMILES: COC(=O)c1nnn([C@H]2C[C@H]3C=Nc4cc(OC)c(OC)cc4C(=O)N3C2)c1C(=O)OC
ΔTm (°C): 2.8

GIVEN_SMILES: COC(=O)c1nnn(CCCCOc2cc3c(cc2OC)C(=O)N2CCC[C@H]2C=N3)c1C(=O)OC
ΔTm (°C): 0

GIVEN_SMILES: COC(=O)c1nnn([C@H]2C[C@H]3C=Nc4ccccc4C(=O)N3C2)c1C(=O)OC
ΔTm (°C): 2.3

GIVEN_SMILES: COC(=O)c1nnn([C@H]2C[C@H]3C=Nc4cc(OCc5ccccc5)c(OC)cc4C(=O)N3C2)c1C(=O)OC
ΔTm (°C): 2.2

GIVEN_SMILES: COC(=O)c1nnn(CCCOc2cc3c(cc2OC)C(=O)N2CCC[C@H]2C=N3)c1C(=O)OC
ΔTm (°C): 3.1

GIVEN_SMILES: COc1cc2c(cc1O)N=C[C@@H]1CCCN1C2=O
ΔTm (°C): 0.7

Please look up its ΔTm: COC(=O)c1nnn(CCCCCOc2cc3c(cc2OC)C(=O)N2C[C@@H](n4nnc(C(=O)OC)c4C(=O)OC)C[C@H]2C=N3)c1C(=O)OC
5.9
